kon values, listed per item
# target.of.assay: T1, Baboon EL-C2 tag (baboon, UniProt Q9Y5X9 21-500 (human entry), limits assumed)
# T1 construct: used as heparin extract of transfected HEK293F cells; also called baboon EL heparin extract
# T1 chain: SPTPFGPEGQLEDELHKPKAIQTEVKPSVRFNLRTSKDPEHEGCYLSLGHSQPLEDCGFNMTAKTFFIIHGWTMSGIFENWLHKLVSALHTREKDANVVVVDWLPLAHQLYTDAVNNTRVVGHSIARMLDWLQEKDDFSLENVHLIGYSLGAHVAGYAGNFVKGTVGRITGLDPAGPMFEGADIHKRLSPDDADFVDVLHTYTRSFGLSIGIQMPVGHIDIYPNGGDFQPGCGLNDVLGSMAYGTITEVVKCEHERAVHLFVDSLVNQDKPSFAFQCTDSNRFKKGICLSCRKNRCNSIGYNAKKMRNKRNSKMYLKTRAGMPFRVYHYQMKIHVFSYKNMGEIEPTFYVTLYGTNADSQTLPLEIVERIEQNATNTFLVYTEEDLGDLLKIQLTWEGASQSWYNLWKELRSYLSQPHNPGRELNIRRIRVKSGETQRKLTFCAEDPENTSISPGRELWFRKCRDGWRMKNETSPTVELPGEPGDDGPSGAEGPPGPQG
# experiment.notes: Biacore SPR; EL heparin extract captured by anti-C2-tag antibody on CM5, antibody as analyte, bivalent fit
Please reply with the bare figure in M⁻¹ s⁻¹ and do not write the unit itself.

Record excerpt, results attached:
binder="16A11 antibody (antibody, IgG1, V domains shown) VH: QVTLKESGPGILQPSQTLSLTCSFSGFSLSTSGMGVGWVRQPSGKGLEWLAHIWWNDYYYYKTALKSRLTISKDTSNNQVFLKIASVDTVDTATYYCARMAPGTPFPSWGQGTLVTVSA VL: DIQMTQSPSSLSASLGGKVTITCKASQDINRYIAWYQHKPGKGPRLLIHYTSTLQPGIPSRFSGSGSGRDYSFSISNLEPEDIATYYCLQYDILLWTFGGGTKLEIK" measured_value=120000
binder="25E4 antibody (antibody, IgG2b, V domains shown) VH: QVALKESGPGILQPSQTLSLTCSFSGFSLSTSGMGVGWIRQPSGKGLEWLAHIWWHGNKYYSTALKSRLTISKDTSNNQVFLKIASVDTADTATYYCARISDGYPLDYWGQGTSVTVSS VL: DIQMTQSPSSLSASLGGKVTITCKASQDINKYIVWYQQKPGKGPRLLIHYTSTLQPGFPSRFSGSGSGRDYSLSITNLEPEDIATYYCLQYDNLLWTFGGGTKLEIK" measured_value=250000
binder="3B1 antibody (antibody, IgG1, V domains shown) VH: QVTLKESGPGILQPSQTLSLTCSFSGFSLSTSGVGVGWIRQPSGKGLEWLAHIWWNDNKYYNTALKSRLTISKDTSNNQVFLKIASVDTADTATYFCARSYDGYPFDYWGQGTLVTVSA VL: DIQMTQSPSSLSASLGGKVTITCKASQDINKYIVWYQHKPGKGPRLLIHHTSTLQPGIPSRFSESGSGRDYSFSISNLEPEDIASYYCLQYDTLLWTFGGGTKLEIR" measured_value=93000

Moving on to the next binder.
# input Look up kon for this binder: 47B2 antibody (antibody, IgG2a, V domains shown) VH: QVALKESGPGILQPSQTLSLTCSFSGFSLSTSGMGVGWIRQPSGKGLEWLAHIWWHGNKYYSTGLKSRLTISKDTSNNQVFLKIASVDTADTATYYCARISAGYPLDYWGQGTSVTVSS VL: DIQMTQSPSSLSASLGGKVTITCKASQDINKYIVWYQHKPGKGPRLLIHYTSTLQPGFPSRFSGSGSGRDYSLSITNLEPEDIATYYCLQYDNLLWTFGGGTKLEIK
# output 140000
